Source listed as the Human Domainome abundance scans (Beltran et al. 2025).

B1: Zinc finger homeobox protein 4, residues 2183 to 2238; numbered along this chain, Q86UP3 (parent)
chain: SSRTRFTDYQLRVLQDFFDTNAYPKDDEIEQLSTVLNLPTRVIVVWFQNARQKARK

# Variants of: B1
# experiment-summary: abundance fitness (aPCA) (normalised: wild type 0, dead -1); higher = more abundant; growth selection in yeast, the domain comes from the species named
# conditions-used: Homo sapiens
Reported abundance fitness values are given for each entry in this list.
Write the value as a bare number.

See these solved cases before continuing.
sequence-string: SSRTRFTDYQLRVLQDFEDTNAYPKDDEIEQLSTVLNLPTRVIVVWFQNARQKARK [F18E]
reported-value: -0.486
//
sequence-string: SPRTRFTDYQLRVLQDFFDTNAYPKDDEIEQLSTVLNLPTRVIVVWFQNARQKARK [S2P]
reported-value: -0.012
//
sequence-string: SSRTRFTDYQLRVLQDFTDTNAYPKDDEIEQLSTVLNLPTRVIVVWFQNARQKARK [F18T]
reported-value: -0.449
//
sequence-string: SSRTRLTDYQLRVLQDFFDTNAYPKDDEIEQLSTVLNLPTRVIVVWFQNARQKARK [F6L]
reported-value: -0.122
//
sequence-string: SSRTRFTDYQLRVLQDFFDTNAEPKDDEIEQLSTVLNLPTRVIVVWFQNARQKARK [Y23E]
reported-value: 0.361

Req: Indicate its recorded abundance fitness; the variant in question is SSRTRFTDYQLRGLQDFFDTNAYPKDDEIEQLSTVLNLPTRVIVVWFQNARQKARK [V13G]
Resp: 0.047

Req: Indicate its recorded abundance fitness; the variant in question is SSRTRFTDYQLRVLQDFFITNAYPKDDEIEQLSTVLNLPTRVIVVWFQNARQKARK [D19I]
Resp: -0.234

Req: Indicate its recorded abundance fitness; the variant in question is SSRTRFTDYQLRVLQDFFDTNAYPKDDEIEQLLTVLNLPTRVIVVWFQNARQKARK [S33L]
Resp: -0.946

Req: Indicate its recorded abundance fitness; the variant in question is SSRTRFTDYQLRVLQDFFDTNAYPKDDEIEQLSTSLNLPTRVIVVWFQNARQKARK [V35S]
Resp: 0.03

Req: Indicate its recorded abundance fitness; the variant in question is SSRTRFTDYALRVLQDFFDTNAYPKDDEIEQLSTVLNLPTRVIVVWFQNARQKARK [Q10A]
Resp: -0.459

Req: Indicate its recorded abundance fitness; the variant in question is SSRTRFTDYQLRVLFDFFDTNAYPKDDEIEQLSTVLNLPTRVIVVWFQNARQKARK [Q15F]
Resp: -0.186
